- assayTarget: SARS-CoV-2 Spike RBD-Fc (SARS-CoV-2)
- experimentDescription: ELISA, RBD-Fc captured via anti-rabbit IgG, concentration-dependent binding
measuredMetric: EC50 (ng/mL)
# value in ng/mL; strip the unit string

Some entries whose results are on file:
Form: binder = HL CV07-283 (antibody, V domains shown) VH: QVQLVQSGAEVKKPGASAKVSCKASGYTFTGYYIHWVRQAPGQGLEWMGLINPISGGTNYAQKFQDRVTMTRDTSISTAYMELSRLRSDDTAVYYCVRGPFYYDSSGPLGGMDVWGQGTTVTVSS VL: QSALTQPASVSGSPGQSITISCTGTSGDVGGYNYVSWYQQHPGKAPKLMIYEVSNRPSGVSNRFSGSKSGNTASLTISGLQAEDEADYYCSSYTSSSTYVFGTGTKVTVLG ; EC50 = 4

Form: binder = HL CV07-270 (antibody, V domains shown) VH: QVQLVESGGGLVKPGGSLRLSCAASGFTFSDYYMTWIRQAPGKGLEWVSYISSSGSTIYYADSVKGRFTISRDNAKNSLYLQMNSLRAEDTAVYYCARARGSSGWYRIGTRWGNWFDPWGQGTLVTVSS VL: QSALTQPASVSGSPGQSITISCTGTSSDVGGYNYVSWYQQHPGKAPKLMIYEVSNRPSGVSNRFSGSKSGNTASLTISGLQAEDEADYYCSSYTSSSNVVFGGGTMLTVLG ; EC50 = 14.2

Now for the binder whose EC50 we want.
Form: binder = HL CV07-222 (antibody, V domains shown) VH: QVQLVQSGAEVKKPGASVKVSCKASGYTFTDYYVHWVRQAPGQGLEWMGWINPISGGTNYAQKFQGRVTMTRDTSISTAYMELSRLRSDDTAVYYCARGPYYYDSSGSLGAFDIWGQGTMVTVSS VL: QSALTQPASVSGSPGQSITISCTGTSSDVGSYNLVSWYQQHPGKAPKLMIYEGSKRPSGVSNRFSGSKSGNTASLTISGLQAEDEAHYYCCSYAGGSTSYVFGTGTKVTVLG ; EC50 = 5.5
